molecular target: Mitogen-activated protein kinase 14 (Homo sapiens); assay: Inhibition of p38 alpha kinase
Sequence (Q16539 whole entry): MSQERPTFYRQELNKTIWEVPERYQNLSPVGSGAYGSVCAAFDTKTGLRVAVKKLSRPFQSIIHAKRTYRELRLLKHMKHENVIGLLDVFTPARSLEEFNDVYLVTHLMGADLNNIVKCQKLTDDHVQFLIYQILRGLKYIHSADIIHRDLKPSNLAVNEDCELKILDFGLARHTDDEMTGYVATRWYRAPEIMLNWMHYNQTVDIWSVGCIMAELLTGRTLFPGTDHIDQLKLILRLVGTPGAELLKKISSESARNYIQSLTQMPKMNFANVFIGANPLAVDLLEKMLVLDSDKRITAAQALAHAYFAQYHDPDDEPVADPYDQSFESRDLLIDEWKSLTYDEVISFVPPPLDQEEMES
pKi: −log10 of the molar value.
assay.endpoint: pKi

## Input Which pKi value belongs to O=C(N[C@H](CO)c1ccc(F)c(Cl)c1)c1cc(-c2n[nH]cc2-c2cccc(Cl)c2)c[nH]1 ?
## Output < 5.40

* * *

target: Proto-oncogene tyrosine-protein kinase Src (Homo sapiens)
Sequence (P12931 2-536 limits assumed): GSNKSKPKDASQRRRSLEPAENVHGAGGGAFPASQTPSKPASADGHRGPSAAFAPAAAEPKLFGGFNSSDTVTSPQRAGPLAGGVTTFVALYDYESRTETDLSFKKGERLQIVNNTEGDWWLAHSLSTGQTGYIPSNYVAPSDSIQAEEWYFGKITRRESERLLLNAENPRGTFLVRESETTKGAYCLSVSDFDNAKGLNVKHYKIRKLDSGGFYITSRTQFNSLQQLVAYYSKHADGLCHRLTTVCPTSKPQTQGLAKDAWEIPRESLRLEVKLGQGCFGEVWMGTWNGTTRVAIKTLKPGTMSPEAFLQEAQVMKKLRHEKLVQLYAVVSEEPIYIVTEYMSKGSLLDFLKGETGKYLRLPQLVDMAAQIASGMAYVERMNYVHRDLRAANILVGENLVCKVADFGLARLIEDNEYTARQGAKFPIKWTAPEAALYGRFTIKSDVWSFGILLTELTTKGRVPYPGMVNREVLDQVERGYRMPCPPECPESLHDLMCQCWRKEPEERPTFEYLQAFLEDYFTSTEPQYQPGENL
assay.endpoint: Ki (nM)
Entry rule: numbers only, all in nM.

## Input Give the measured Ki of O=C(N[C@H](CO)c1ccc(F)c(Cl)c1)c1cc(-c2n[nH]cc2-c2cccc(Cl)c2)c[nH]1 .
## Output 1100

* * *

Here the recorded log10 of Ki is given for each entry.
biological target: Mitogen-activated protein kinase 1 (Homo sapiens, UniProt P28482); assay: Inhibition of ERK2 by spectrophotometric coupled-enzyme assay
Sequence (P28482 whole entry): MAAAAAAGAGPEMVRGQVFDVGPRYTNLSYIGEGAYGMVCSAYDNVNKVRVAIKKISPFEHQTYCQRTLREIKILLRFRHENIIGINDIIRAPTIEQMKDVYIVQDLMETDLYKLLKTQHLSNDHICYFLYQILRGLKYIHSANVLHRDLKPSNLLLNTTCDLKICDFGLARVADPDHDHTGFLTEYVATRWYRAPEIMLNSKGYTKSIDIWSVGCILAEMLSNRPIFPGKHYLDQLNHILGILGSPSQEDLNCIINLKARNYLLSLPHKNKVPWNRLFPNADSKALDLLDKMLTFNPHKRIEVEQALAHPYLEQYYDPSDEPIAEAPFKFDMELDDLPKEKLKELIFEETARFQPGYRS
Heads up: the numbers are on a log10 scale; they represent Ki in nM.

## Input What measured log10 of Ki goes with O=C(c1cc(-c2[nH]ncc2-c2cccc(Cl)c2)c[nH]1)N1CCCC1 ?
## Output 2.30

## Input Record: O=C(NC(CO)c1ccc(F)c(Cl)c1)c1cc(-c2[nH]ncc2-c2cccc(Cl)c2)c[nH]1 (centres undefined)
## Output 0.78

## Input Another compound: COc1ccc(CNC(=O)c2cc(-c3n[nH]cc3-c3cccc(Cl)c3)c[nH]2)cc1
## Output 2.69

## Input Would you kindly repeat that for CNC(=O)[C@@H](NC(=O)c1cc(-c2[nH]ncc2-c2cccc(Cl)c2)c[nH]1)c1ccccc1 ?
## Output 3.36

## Input Entry to check: O=C(NC(CO)c1ccc(C(F)(F)F)cc1)c1cc(-c2n[nH]cc2-c2cccc(Cl)c2)c[nH]1 (centres undefined)
## Output 1.64
